- assaySystem: BRD4 (BD1) (Homo sapiens, UniProt O60885)
- Construct: with relatively long constructs also being possible, preferably amino acids 44-168; made in house; host or cells: E. coli
- measurementDescription: Binding assay BRD4/acetylated peptide H4 (TR-FRET protein-protein interaction assay)

{"columns": ["molecule", "IC50"],
 "data": [
  ["CNC(=O)N1N=C(c2ccc(-n3nc(C4CC4)cc3-c3ccccn3)cc2)c2cc(OC)ccc2C[C@@H]1C", "130 nM"],
  ["CNC(=O)N1N=C(c2ccc(-c3ccc(F)c(C#N)c3)cc2)c2cc(OC)c(OC)cc2CC1C (racemic)", "130 nM"],
  ["CCC1Cc2cc(OC)c(OC)cc2C(c2ccc(N3CCC(O)CC3)cc2)=NN1C(=O)NC (racemic)", "1220 nM"],
  ["CNC(=O)N1N=C(c2ccc(N3C[C@@H](C)O[C@@H](C)C3)cc2)c2cc(OC)c(OC)cc2C[C@@H]1C", "690 nM"],
  ["CCC1Cc2cc(OC)c(OC)cc2C(c2ccc(-c3ccc(F)cc3)cc2)=NN1C(=O)NC (racemic)", "1980 nM"],
  ["CNC(=O)N1N=C(c2ccc(Cl)cc2)c2ccc(N3CCOC3=O)cc2CC1C (racemic)", "240 nM"],
  ["CNC(=O)N1N=C(c2ccc(-c3ccc(O)nc3)cc2)c2cc(OC)c(OC)cc2CC1C (racemic)", "40 nM"],
  ["CNC(=O)N1N=C(c2ccc(-c3ccccc3C)cc2)c2cc(OC)c(OC)cc2CC1C (racemic)", "210 nM"],
  ["CCNC(=O)N1N=C(c2ccc(N3CCN(C)CC3)cc2)c2cc(OC)c(OC)cc2C[C@@H]1C", "1220 nM"],
  ["CNC(=O)N1N=C(c2ccc(N3CCN(C)CC3)cc2)c2ccc(N3CCN(C)CC3)cc2CC1C (racemic)", "1070 nM"],
  ["CNC(=O)N1N=C(c2ccc(-c3cccc(C(=O)N4CCCCC4)c3)cc2)c2cc(OC)c(OC)cc2CC1C (racemic)", "50 nM"],
  ["CNC(=O)N1N=C(c2ccc(-c3c(C)noc3C)cc2)c2cc(OCCCN3CCOCC3)ccc2CC1C (racemic)", "30 nM"],
  ["CNC(=O)N1N=C(c2ccc(-c3c(C)noc3C)cc2)c2cc(OC)c(OC)cc2C[C@@H]1C", "60 nM"],
  ["CNC(=O)N1N=C(c2ccc(-c3ccccc3CO)cc2)c2cc(OC)c(OC)cc2CC1C (racemic)", "80 nM"],
  ["CNC(=O)N1N=C(c2ccc(-c3cccc(C(=O)N4CCOCC4)c3)cc2)c2cc(OC)c(OC)cc2CC1C (racemic)", "30 nM"]
]}

###

- assaySystem: BRD4 (BD1) (Homo sapiens, UniProt O60885)
- Construct: with relatively long constructs also being possible, preferably amino acids 44-168
- measurementDescription: Binding assay BRD4/acetylated peptide H4 (TR-FRET protein-protein interaction assay)
pIC50: −log10 of the molar value.

{"columns": ["compound", "pIC50"],
 "data": [
  ["CNC(=O)N1N=C(c2ccc(-n3nc(C)nc3C)cc2)c2cc(OC)c(OC)cc2CC1C (racemic)", 6.77],
  ["CNC(=O)N1N=C(c2ccc(-c3ccc(N4CCOCC4)cc3)cc2)c2cc(OC)c(OC)cc2CC1C (racemic)", 7.22],
  ["CNC(=O)N1N=C(c2ccc(N3CCN(S(C)(=O)=O)CC3)cc2)c2cc(OC)c(OC)cc2CC1C (racemic)", 7.30],
  ["CC[C@@H]1Cc2cc(OC)c(OC)cc2C(c2ccc(N3CCNCC3)cc2)=NN1C(=O)NC", 5.18],
  ["CNC(=O)N1N=C(c2ccc(-c3ccc(-c4ccc(Cl)s4)cc3)cc2)c2cc(OC)c(OC)cc2CC1C (racemic)", 6.54],
  ["CNC(=O)N1N=C(c2ccc(-c3cccnc3Cl)cc2)c2cc(OC)c(OC)cc2CC1C (racemic)", 7.10],
  ["CNC(=O)N1N=C(c2ccc(-c3ccccc3Cl)cc2)c2cc(OC)c(OC)cc2CC1C (racemic)", 6.74],
  ["CNC(=O)N1N=C(c2ccc(N3CCN(C)CC3)cc2)c2cc(OC)c(OC(F)F)cc2C[C@H]1C", 5.05],
  ["CNC(=O)N1N=C(c2ccc(Cl)cc2)c2ccc(N3CCCC3)cc2CC1C (racemic)", 5.42],
  ["CNC(=O)N1N=C(c2ccc(N3CCCOC3=O)cc2)c2cc(OC)c(OC)cc2CC1C (racemic)", 6.92],
  ["CNC(=O)N1N=C(c2ccc(-c3c(C)nn(C)c3C)cc2)c2cc(OC(F)(F)F)ccc2CC1C (racemic)", 7.52],
  ["CCc1cc(C2CC2)n(-c2ccc(C3=NN(C(=O)NC)[C@@H](C)Cc4ccc(OC)cc43)cc2)n1", 6.80],
  ["CNC(=O)N1N=C(c2ccc(-n3nc(-c4ccccc4)cc3C3CC3)cc2)c2cc(OC)c(OC)cc2C[C@@H]1C", 7.52],
  ["CNC(=O)N1N=C(c2ccc(-c3ccnc(OC)c3)cc2)c2cc(OC)c(OC)cc2CC1C (racemic)", 7.15],
  ["CNC(=O)N1N=C(c2ccc(-c3c(C)noc3C)cc2)c2cc(C)ccc2CC1C (racemic)", 7.22],
  ["CC[C@H]1Cc2cc(OC)c(OC)cc2C(c2ccc(N3CCN(C)CC3)cc2)=NN1C(=O)NC", 6.15],
  ["CNC(=O)N1N=C(c2ccc(-c3cncc(C)c3)cc2)c2cc(OC)c(OC)cc2CC1C (racemic)", 7.30],
  ["CNC(=O)N1N=C(c2ccc(-c3ccc(C(=O)O)s3)cc2)c2cc(OC)c(OC)cc2CC1C (racemic)", 7.52],
  ["CNC(=O)N1N=C(c2ccc(Cl)cc2)c2ccc(-c3ccc(O)nc3)cc2CC1C (racemic)", 5.59],
  ["CNC(=O)N1N=C(c2ccc(-c3c(C)noc3C)cc2)c2cc(O)ccc2CC1C (racemic)", 6.96],
  ["CNC(=O)N1N=C(c2ccc(-c3ccc(C(F)(F)F)nc3)cc2)c2cc(OC)c(OC)cc2C[C@@H]1C", 6.96],
  ["CNC(=O)N1N=C(c2ccc(-c3c(C)nn(C)c3C)cc2)c2cc(OC)c(OC)cc2CC1C(C)C (racemic)", 5.11],
  ["CNC(=O)N1N=C(c2ccc(Cl)cc2)c2cc(N3CCS(=O)(=O)CC3)c(OC(F)(F)F)cc2CC1C (racemic)", 6.28],
  ["CNC(=O)N1N=C(c2ccc(-n3ccc(-c4ccc(F)cc4)n3)cc2)c2cc(OC)c(OC)cc2C[C@H]1C", 4.91],
  ["CNC(=O)N1N=C(c2ccc(-c3c(C)noc3C)cc2)c2cc(Cl)c(OC)cc2CC1C (racemic)", 6.68],
  ["CNC(=O)N1N=C(c2ccc(N3CCN(CCO)CC3)cc2)c2cc(OC)c(OC)cc2CC1C (racemic)", 7.15],
  ["CNC(=O)N1N=C(c2ccc(-c3ccc(CO)cc3)cc2)c2cc(OC)c(OC)cc2CC1C (racemic)", 7.40],
  ["CNC(=O)N1N=C(c2ccc(Cl)cc2)c2cc(OCCCN3CCN(C)CC3)ccc2C[C@@H]1C", 7.22],
  ["CNC(=O)N1N=C(c2ccc(N3CCN(C(=O)C(F)(F)F)CC3)cc2)c2cc(OC)c(OC)cc2CC1C (racemic)", 7.30]
]}
